- testSystem: T1, human ICOS (human, UniProt Q9Y6W8 21-199)
- T1 construct: whole, on cells
- T1 sequence (looked up): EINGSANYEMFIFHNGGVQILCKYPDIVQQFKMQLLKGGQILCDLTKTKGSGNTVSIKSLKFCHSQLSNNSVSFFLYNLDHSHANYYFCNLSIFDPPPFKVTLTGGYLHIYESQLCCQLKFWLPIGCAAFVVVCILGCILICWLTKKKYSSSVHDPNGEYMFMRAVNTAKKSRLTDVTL
- methodDescription: flow cytometry, cells with human ICOS; protein from CHO
assayEndpoint: MFI (ΔWT)

- ICOSL IgV with N52H/N57Y/Q100R, Fc fusion with (G4S)2 linker (Fc fusion, also called ICOSCL IgV with N52H/N57Y/Q100R) DTQEKEVRAMVGSDVELSCACPEGSRFDLNDVYVYWQTSESKTVVTYHIPQHSSLEYVDSRYRNRALMSPAGMLRGDFSLRLFNVTPQDEQKFHCLVLSRSLGFQEVLSVEVTLHVAANFSVGGGGSGGGGSEPKSSDKTHTCPPCPAPEAEGAPSVFLFPPKPKDTLMISRTPEVTCVVVDVSHEDPEVKFNWYVDGVEVHNAKTKPREEQYNSTYRVVSVLTVLHQDWLNGKEYKCKVSNKALPAPIEKTISKAKGQPREPQVYTLPPSREEMTKNQVSLTCLVKGFYPSDIAVEWESNGQPENNYKTTPPVLDSDGSFFLYSKLTVDKSRWQQGNVFSCSVMHEALHNHYTQKSLSLSPG: 1.2 fold vs WT
